Test system: OVCAR-4 ovarian
Protocol summary: NCI tumour cell line growth inhibition, 48 h
Quantity measured: TGI

Field request: TGI | item: `COc1ccc2c(c1)C(=O)c1c-2n(CCCCl)c(=O)c2cc(N)ccc12`
> 100 µM

Same thing, different compound: `COC(=O)[C@H](CCCCNC(=O)OCc1ccccc1)NC(=O)[C@@H](NC(=O)Nc1cc(C(F)(F)F)cc(C(F)(F)F)c1)C(C)C`
> 10 µM

Here is the next compound: OCC1OC(n2cnc3c(NCc4ccco4)ncnc32)C(O)C1O (configuration not stated)
18.8 µM

Please do the same for `COc1cc([C@@H]2c3cc4c(cc3[C@@H](NC(=O)NO)[C@H]3COC(=O)[C@H]23)OCO4)cc(OC)c1O` as well.
> 100 µM

Entry to check: CC(=O)OC(C)c1cc2c(s1)C(=O)c1ccsc1C2=O (configuration not stated)
1.93 µM

Check `CC(=O)/C=C/c1ccc(N(CCO)Cc2ccc(C(C)(C)C)cc2)cc1` too.
175 µM

Try `COC(=O)CNC(=O)CSc1nnc(COc2ccc(Cl)cc2)n1-c1ccccc1` next.
> 100 µM

Ok, now `CC1(C)CN(CCNc2nccc(-c3c(-c4cccc(O)c4)nc4sccn34)n2)S(=O)(=O)N1`
> 33.2 µM

Another compound to look at: `O=C(OCc1ccccc1)n1cccc1`
> 100 µM

Proceed to COC(=O)C(=O)C(C(C)=O)C(=O)C(=O)Nc1ccc(C)cc1C (configuration not stated)
> 100 µM

Try this compound too: `O=C(CCl)Nc1ccc(Cc2ccc(NC(=O)CCl)cc2)cc1`
3.44 µM

# repeat for Cc1cc(C)c(C(=O)C(C)C(c2ccccc2)c2ccc(Cl)cc2)c(C)c1 (configuration not stated)
> 100 µM
